Study Target: Platelet-activating factor acetylhydrolase 2, cytoplasmic (Homo sapiens)
Assay: inhibition of cytoplasmic PAF acetylhydrolase 2 – biochemical, fluorescence polarization, human, primary screen (AID 492956);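 note: inhibitors block probe labeling of enzyme so polarization drops; 0% = enzyme with DMSO and 100% = wells lacking PAFAH2 protein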
Recorded Conditions: recombinant PAFAH2, FP-rhodamine activity probe, at 3.39 µM, stronger effect = higher value
The whole screen tested about 340,000 compounds, of which about 3,300 (0.97%) were called active. Many of the other results were omitted from the sample, so actives are more common in it than they were.
Quantity: inhibition (%)
Give just the number in %; leave the unit off.

Lab book: inhibition of COc1ccc([N+](=O)[O-])cc1NC(=O)COC(=O)/C=C/c1ccco1 noted as 14.1

Lab book: inhibition of COCc1c(C(=O)OCC(=O)Nc2ccc(OC(F)F)cc2)oc2ccccc12 noted as 30.5

Lab book: inhibition of O=C(CNC(=O)c1ccc(Cl)cc1Cl)NCC(=O)Nc1ccccc1N1CCOCC1 noted as 7.59

Lab book: inhibition of O=C(NCCC(=O)N1O[C@@H]2C=C[C@H]1C2)OCC1c2ccccc2-c2ccccc21 noted as 2.94

Lab book: inhibition of COc1ccc(OC)c(/C=C/C(=O)c2ccc3c(c2)OCO3)c1 noted as 10.8

Lab book: inhibition of CC(=O)c1c(C)[nH]c(C(=O)OCC(=O)Nc2c(C)cccc2C)c1C noted as 4.64

Lab book: inhibition of O=C(OC1CCOC1=O)c1cccc(S(=O)(=O)Nc2ccc(F)cc2)c1 (configuration not stated) noted as 9.72

Lab book: inhibition of Cc1ccc(Nc2c(F)c(F)c(F)c(F)c2C(=O)O)c(C)c1 noted as 4.36

Lab book: inhibition of COCc1c(C(=O)OCc2c(C)noc2C)oc2ccccc12 noted as -5.34

Lab book: inhibition of NS(=O)(=O)c1cccc(NC(=O)COC(=O)/C=C/c2ccco2)c1 noted as 26.1

Lab book: inhibition of Cn1c2c(c(=O)n(C)c1=O)CN(Cc1ccco1)CN2 noted as -2.71

Lab book: inhibition of Cc1cccc(/C(N)=N/OC(=O)c2ccccc2Cl)c1 noted as -5.1

Lab book: inhibition of COc1cccc(NC(=O)COC(=O)/C=C/c2ccco2)c1 noted as 71.4

Lab book: inhibition of COc1cccc(NC(=O)CN(C)C(=O)/C=C/c2cc(OC)ccc2OC)c1 noted as 1.18

Lab book: inhibition of NC(=O)C1CCN(C(=O)c2ccc3c(=O)n(Cc4cccc(Br)c4)c(=S)[nH]c3c2)CC1 noted as 1.48

Lab book: inhibition of CCOC(=O)C1CCCN(Cc2nc(N)nc(Nc3ccc(C)cc3)n2)C1 (configuration not stated) noted as 3.45

Lab book: inhibition of COc1cc2c(C(=O)N3CCN(C)CC3)c(CSc3ccccc3)n(C)c2cc1Br noted as -5.01

Lab book: inhibition of CCOc1ccccc1NS(=O)(=O)c1cc2c3c(c1)C(C)C(=O)N3CCC2 (configuration not stated) noted as 6.38

Lab book: inhibition of O=C(OCc1cn(-c2ccc(Cl)c(Cl)c2)nn1)c1ccccc1Cl noted as 44.2

Lab book: inhibition of COc1cc(/C=C/C(=O)OCC(=O)c2ccccc2)cc(OC)c1OC noted as 18

Lab book: inhibition of S=c1nc2ccccc2c2nc(-c3cccnc3)[nH]n12 noted as 6.52

Lab book: inhibition of CC(=O)c1c(C)[nH]c(C(=O)OCC(=O)NCCC(C)C)c1C noted as 30.4
